Target: T1, human CD24 (human, UniProt P25063 27-59, heavily glycosylated, GPI-anchored (as described in the background))
T1 construct: whole, on cells; Target of all cell-based FACS assays; also called hCD24; Cluster of differentiation 24
T1 chain (looked up): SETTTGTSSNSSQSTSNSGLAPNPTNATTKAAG
Assay: FACS, 293F-hCD24 cells
readoutType: pEC50
In simple prose, pEC50 is minus the logarithm base ten of a concentration in moles per litre.

Solved cases (3 shown):
{"binder": "SN3 (antibody, V domains shown) VH: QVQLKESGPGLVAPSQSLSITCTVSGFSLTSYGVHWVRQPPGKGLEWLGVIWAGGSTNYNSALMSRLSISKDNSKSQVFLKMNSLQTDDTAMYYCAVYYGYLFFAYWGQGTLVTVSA VL: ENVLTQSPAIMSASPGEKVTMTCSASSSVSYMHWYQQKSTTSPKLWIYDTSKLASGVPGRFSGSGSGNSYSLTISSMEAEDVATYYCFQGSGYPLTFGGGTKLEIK", "pEC50": 8.49}
{"binder": "ch110D4G4-hIgG4 (antibody, V domains shown, chimeric; also called chAb110D4G4) VH: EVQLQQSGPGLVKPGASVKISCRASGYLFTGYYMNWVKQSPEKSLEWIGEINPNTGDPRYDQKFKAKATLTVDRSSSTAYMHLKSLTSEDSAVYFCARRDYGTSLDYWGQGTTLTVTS VL: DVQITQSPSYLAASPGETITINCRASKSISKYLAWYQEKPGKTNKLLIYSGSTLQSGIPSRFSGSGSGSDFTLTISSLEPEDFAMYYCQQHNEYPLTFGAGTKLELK", "pEC50": 8.55}
{"binder": "ch56A7E3-hIgG4 (antibody, V domains shown, chimeric) VH: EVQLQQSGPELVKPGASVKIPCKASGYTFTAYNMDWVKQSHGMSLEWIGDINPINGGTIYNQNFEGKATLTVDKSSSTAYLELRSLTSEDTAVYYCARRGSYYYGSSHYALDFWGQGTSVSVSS VL: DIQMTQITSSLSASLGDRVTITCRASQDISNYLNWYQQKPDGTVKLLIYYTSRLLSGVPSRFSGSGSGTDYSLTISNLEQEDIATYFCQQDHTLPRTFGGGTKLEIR", "pEC50": 8.43}

Lookup: Entry ch100F2E3-hIgG4 (antibody, V domains shown, chimeric) VH: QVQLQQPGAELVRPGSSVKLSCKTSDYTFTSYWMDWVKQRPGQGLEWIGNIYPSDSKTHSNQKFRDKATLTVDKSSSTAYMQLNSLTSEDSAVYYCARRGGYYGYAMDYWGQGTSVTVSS VL: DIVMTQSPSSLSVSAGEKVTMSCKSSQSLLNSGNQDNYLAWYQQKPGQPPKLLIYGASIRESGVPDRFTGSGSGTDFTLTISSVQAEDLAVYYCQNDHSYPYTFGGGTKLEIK has what pEC50?
Found: 8.43

Lookup: Request the reported pEC50 associated with ch81A1F8-hIgG4 (antibody, V domains shown, chimeric; also called chAb81A1F8; ch81A1F8-IgG4) VH: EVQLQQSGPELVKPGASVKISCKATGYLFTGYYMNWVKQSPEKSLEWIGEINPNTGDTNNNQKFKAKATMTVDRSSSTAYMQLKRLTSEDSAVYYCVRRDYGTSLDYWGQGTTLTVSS VL: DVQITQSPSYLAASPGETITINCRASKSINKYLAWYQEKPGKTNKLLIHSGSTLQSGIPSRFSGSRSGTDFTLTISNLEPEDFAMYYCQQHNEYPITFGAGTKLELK
Found: 8.47

Lookup: Recorded pEC50 of 81A1F8 (antibody, V domains shown, mouse monoclonal antibody) VH: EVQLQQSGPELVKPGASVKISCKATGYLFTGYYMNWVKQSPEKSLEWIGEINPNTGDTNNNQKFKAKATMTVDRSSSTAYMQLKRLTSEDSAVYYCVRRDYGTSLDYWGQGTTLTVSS VL: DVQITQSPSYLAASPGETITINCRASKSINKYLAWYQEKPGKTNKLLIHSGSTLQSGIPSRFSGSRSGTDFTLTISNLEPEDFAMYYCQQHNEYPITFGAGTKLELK , please.
Found: 8.77

Lookup: What value of pEC50 has been recorded for this entry: 100F2E3 (antibody, V domains shown, mouse monoclonal antibody) VH: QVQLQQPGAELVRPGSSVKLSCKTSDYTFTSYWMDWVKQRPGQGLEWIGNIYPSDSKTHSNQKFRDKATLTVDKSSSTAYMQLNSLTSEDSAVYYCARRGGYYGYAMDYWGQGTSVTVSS VL: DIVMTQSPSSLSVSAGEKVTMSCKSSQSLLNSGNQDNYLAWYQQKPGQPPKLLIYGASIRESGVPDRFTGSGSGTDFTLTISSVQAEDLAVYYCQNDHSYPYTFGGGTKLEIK
Found: 7.94

Lookup: pEC50 lookup needed for 73H5-1G2 (antibody, V domains shown, mouse monoclonal antibody) VH: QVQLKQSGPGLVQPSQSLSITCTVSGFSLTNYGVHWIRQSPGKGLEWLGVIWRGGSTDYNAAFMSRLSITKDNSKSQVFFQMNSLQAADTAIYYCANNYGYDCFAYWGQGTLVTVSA VL: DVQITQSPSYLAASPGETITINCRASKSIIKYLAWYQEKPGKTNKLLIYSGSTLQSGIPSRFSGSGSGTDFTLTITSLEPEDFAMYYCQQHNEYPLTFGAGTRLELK , thanks.
Found: 7.79

Lookup: What does the data say about its pEC50? Entry: 56A7E3 (antibody, V domains shown, mouse monoclonal antibody) VH: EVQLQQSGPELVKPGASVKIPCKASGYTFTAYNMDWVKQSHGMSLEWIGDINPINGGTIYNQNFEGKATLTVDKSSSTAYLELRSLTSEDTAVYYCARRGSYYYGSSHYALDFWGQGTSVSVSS VL: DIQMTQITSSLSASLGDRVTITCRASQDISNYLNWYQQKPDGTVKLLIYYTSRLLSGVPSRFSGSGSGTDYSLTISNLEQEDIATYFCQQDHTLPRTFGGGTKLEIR
Found: 8.12

Lookup: Look up pEC50: 58F10-1F6 (antibody, V domains shown, mouse monoclonal antibody) VH: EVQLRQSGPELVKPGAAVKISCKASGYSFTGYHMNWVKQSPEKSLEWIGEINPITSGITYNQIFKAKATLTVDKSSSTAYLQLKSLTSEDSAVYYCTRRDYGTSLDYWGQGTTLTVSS VL: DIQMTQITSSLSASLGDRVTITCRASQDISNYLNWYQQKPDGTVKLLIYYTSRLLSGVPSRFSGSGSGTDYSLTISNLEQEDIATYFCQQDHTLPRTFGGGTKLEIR
Found: 7.62

Lookup: Item 110D4G4 (antibody, V domains shown, mouse monoclonal antibody; also called mAb-110D4G4) VH: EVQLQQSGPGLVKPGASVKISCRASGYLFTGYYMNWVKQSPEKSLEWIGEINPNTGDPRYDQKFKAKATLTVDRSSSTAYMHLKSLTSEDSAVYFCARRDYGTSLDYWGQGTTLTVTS VL: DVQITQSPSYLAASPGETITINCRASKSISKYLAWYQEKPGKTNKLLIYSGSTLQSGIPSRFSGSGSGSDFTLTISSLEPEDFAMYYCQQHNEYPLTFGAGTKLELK has what recorded pEC50?
Found: 8.18
